Property: A450; scope: individual binders
Target: T1, Human Id3: Histidine (human, UniProt Q02535 1-119 at identity 1.00))
T1 construct: Fusion protein made in E. coli from vector pGW07; also called h-Id3: His; Human Id3 (coated wells); not shown: His tag
T1 chain: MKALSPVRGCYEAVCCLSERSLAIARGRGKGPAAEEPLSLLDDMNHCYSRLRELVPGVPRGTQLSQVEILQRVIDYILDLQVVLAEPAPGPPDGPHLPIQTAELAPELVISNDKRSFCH
Assay: ELISA, Ab 0.010 µg/ml

Req: I have this binder here, rabbit monoclonal anti-mouse/human Id3, clone #BCH-4/#17-3 (antibody, V domains shown, Rabbit IgG from a rabbit hybridoma; also called m/h Id3 MoAb 17-3; BCH-3/#17-3) VH: QSVEESGGRLVTPGTPLTLTCTASGFSLSNVYIHWVRQAPGKGLEWIGYISDGDTARYATWAKGRFTISKTSSTTVNLKMTSLTTEDTATYFCARQGFNIWGPGTLVTVSL VL: AVLTQTPSPVSAAVGGTVSISCQSSQSVWNNNWLSWFQQKPGQPPKLLIYETSKLESGVPSRFKGSGSGTQFTLTISDVQCDDAATYYCLGGYWTTSDNNVFGGGTEVVVK , and I need its recorded A450.
Resp: 0.581 A450

Others:
Req: Record request: A450 value, item rabbit monoclonal anti-mouse/human Id3, clone #BCH-4/#16-1 (antibody, V domains shown, Rabbit IgG from a rabbit hybridoma; also called m/h Id3 MoAb 16-1) VH: QSVEESGGRLVTPGTPLTLTCTASGFSLSSYYIHWVRQAPGKALEWIGYISDGGTTYYASWAKGRFTISKTSSTTVDLKMTSLTTEDTATYFCARQGFNIWGPGTLVTVSL VL: AVLTQTPSPVSAAVGGTVTISCQSSQSVYNNNWLSWFQQKSGQPPKLLIYETSKLESGVPSRFKGSGSGTQFTLTIIDVQCDDAATYYCLGGYWTTSDNNIFGGGTEVVVK
Resp: 0.391 A450

Req: Report A450 for rabbit monoclonal anti-mouse/human Id3, clone #BCH-4/#6-1 (antibody, V domains shown, Rabbit IgG from a rabbit hybridoma; also called m/h Id3 MoAb 6-1) VH: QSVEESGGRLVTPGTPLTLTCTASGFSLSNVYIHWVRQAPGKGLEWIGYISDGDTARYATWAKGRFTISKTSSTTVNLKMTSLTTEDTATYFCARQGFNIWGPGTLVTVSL VL: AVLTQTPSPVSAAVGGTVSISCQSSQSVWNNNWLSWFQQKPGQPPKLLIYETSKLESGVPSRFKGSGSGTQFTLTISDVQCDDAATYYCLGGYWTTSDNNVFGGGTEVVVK please.
Resp: 0.491 A450

Req: Could you tell me which A450 is on file for rabbit monoclonal anti-mouse/human Id3, clone #BCH-4/#42-1 (antibody, V domains shown, Rabbit IgG from a rabbit hybridoma; also called m/h Id3 MoAb 42-1) VH: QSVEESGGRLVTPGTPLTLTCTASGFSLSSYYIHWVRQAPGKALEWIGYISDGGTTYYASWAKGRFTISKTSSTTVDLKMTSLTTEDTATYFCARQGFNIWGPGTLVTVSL VL: AVLTQTPSPVSAAVGGTVTISCQSSQSVYNNNWLSWFQQKSGQPPKLLIYETSKLESGVPSRFKGSGSGTQFTLTIIDVQCDDAATYYCLGGYWSTSDNNIFGGGTEVVVK ?
Resp: 0.713 A450
